Listing of entries alongside the reported selectivity ratio.
- System: CYP3A4 versus CYP2A6
- assay_notes: Ratio of inhibition of human cytochrome P-450 3A4 to 2A6 was determined; Expressed as IC50(CYP3A4)/IC50(CYP2A6)

C[n+]1c[nH]cc1-c1cccnc1	349
O/N=C\c1ccc(-c2cccnc2)o1	> 95
c1cncc(-c2ccsc2)c1	400
CC(=O)c1ccc(-c2cccnc2)s1	3.1
CNc1ccc(-c2cccnc2)s1	2

Look up selectivity ratio for this compound: CCn1cnc(-c2cccnc2)c1
26

Look up selectivity ratio for this compound: Fc1ccc(-c2ccsc2)cn1
20

Look up selectivity ratio for this compound: O/N=C/c1ccc(-c2cccnc2)s1
9.3
